target: Alpha-1A adrenergic receptor (Rattus norvegicus, UniProt P43140); test: Binding affinities against Alpha-1 adrenergic receptor (alpha1 adrenoceptor) using [3H]prazosin as radioligand in rat cerebral cortex membrane; type: cell membranes
Sequence (P43140 whole entry): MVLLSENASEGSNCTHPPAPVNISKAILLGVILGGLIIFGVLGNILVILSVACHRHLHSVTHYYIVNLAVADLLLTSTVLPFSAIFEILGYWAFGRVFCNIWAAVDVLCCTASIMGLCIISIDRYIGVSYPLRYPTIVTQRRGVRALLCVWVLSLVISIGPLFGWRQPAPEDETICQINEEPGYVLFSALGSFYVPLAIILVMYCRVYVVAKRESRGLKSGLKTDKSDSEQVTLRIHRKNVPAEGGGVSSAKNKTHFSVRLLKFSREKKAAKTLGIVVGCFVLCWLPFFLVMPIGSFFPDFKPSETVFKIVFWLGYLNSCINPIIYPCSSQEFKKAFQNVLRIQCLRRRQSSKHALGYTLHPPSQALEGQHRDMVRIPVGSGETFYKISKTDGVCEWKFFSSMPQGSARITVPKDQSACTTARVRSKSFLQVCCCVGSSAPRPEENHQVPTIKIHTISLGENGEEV
VALUE_KIND: pKi
In textbook form, pKi equals minus log to base ten of the concentration in mol/L.

Worked examples, 2 compounds total:
{"COMPOUND": "FC(F)(F)c1cccc(N2CCN(CCCN3CC4CCCN4C3)CC2)c1 (stereo not given)", "VALUE_KIND": "pKi", "MEASURED_NUMBER": 6.44}
{"COMPOUND": "COc1ccccc1N1CCN(CCCN2C(=O)C3CCCN3C2=O)CC1 (stereo not given)", "VALUE_KIND": "pKi", "MEASURED_NUMBER": 8.51}

Data request: I would be grateful if you could share the reported pKi for COc1ccccc1N1CCN(CCCN2CC3CCCN3C2)CC1 (stereo not given) .
Data returned: 6.49

Value source: ChEMBL document CHEMBL1130349
